# pIC50 per record follows
target: Nef interaction with CD86 (Human immunodeficiency virus type 1 group M subtype B, UniProt P04601); experiment: ELISA primary screen: Nef binding to CD86 cytosolic peptide
# reply with the number alone; pIC50 is -log10 of concentration in mol/L

structure	assayReadout	experimentalResult
O=C(Nc1ccc(Cl)c(Cl)c1)Nc1cc([N+](=O)[O-])ccc1OC(=O)Nc1ccc(Cl)c(Cl)c1	pIC50	9.56
Cc1ccc(OC(=O)Nc2ccc(Cc3ccc(NC(=O)Oc4ccc(C)cc4)cc3)cc2)cc1	pIC50	6.29
FC(F)(F)c1ccc(-c2cnc(N3CCOCC3)nc2)cc1	pIC50	8.79

Request: Entry O=C(Nc1ccccc1F)Oc1ccc2ccccc2c1 : reported pIC50 = ?
Result: 10.90
